Measured TGI by item
System: MDA-MB-231 breast
Experiment: NCI tumour cell line growth inhibition, 48 h
Please reply with the bare figure in µM and do not write the unit itself.

See these solved cases before continuing.
{"Compound": "Cc1nn(-c2nc3ccccc3s2)c(C)c1Oc1ccccc1O", "Endpoint Unit": "µM", "Obs Value": 25.9}
{"Compound": "CC(C)(C)NC(C1=CC(C)(C)c2ccccc2C1=O)c1ccccc1 (configuration not stated)", "Endpoint Unit": "µM", "Obs Value": 3.45}

Input line: Note TGI for the compound shown: "CC1=CC(=NC(=O)CBr)C=C/C1=N\S(=O)(=O)c1ccccc1"
Output line: 6.42

Input line: Give the reported TGI for this compound. "COc1cc(O)cc(/C=C/c2ccc(O)cc2)c1"
Output line: 47.9

====

Tested on: NCI-H522 lung
Assay: NCI tumour cell line growth inhibition, 48 h; in the data active = GI50 below about 0.43 µM; inactive = the rest
The reply should name one outcome from y = active, n = inactive

Recorded results for 2 compounds are shown here.
{"Molecule Smiles": "COc1ccc2c(c1)c(-c1ccc(-c3cn(S(=O)(=O)c4ccccc4)c4ccc(OC)cc34)s1)cn2S(=O)(=O)c1ccccc1", "Assayed System": "NCI-H522 lung", "Label": "n"}
{"Molecule Smiles": "CC[C@H](C)[C@H]1NC(=O)[C@@H](N[C@](C)(O)[C@@H](N)CC(C)C)[C@@H](C)OC(=O)[C@H](Cc2ccc(OC)cc2)N(C)C(=O)[C@@H]2CCCN2C(=O)[C@H](CC(C)C)NC(=O)[C@@H](C)C(=O)[C@H](C(C)C)OC(=O)C[C@@H]1O", "Assayed System": "NCI-H522 lung", "Label": "y"}

Pending compound:
Input line: What outcome does the record of this test show for "Oc1ccc(-c2nnc3sc(-c4ccc(F)c(Oc5ccccc5)c4)nn23)cc1" ?
Output line: n

====

System: EKVX NSCLC
Test: NCI tumour cell line growth inhibition, 48 h
Endpoint Name: TGI

For orientation, consider the following solved cases.
{"Compound": "CC1=NN(C(=O)CC(=O)Nc2ccccc2C)C(=O)C1N=Nc1ccc(C(=O)O)cc1 (stereo not given)", "Obs Value": "> 100 µM"}
{"Compound": "C[C@@H]1CN(C(=O)c2ccc(NC(=O)c3cc(O[C@H](C)c4c(Cl)ccc(F)c4Cl)c(N)nn3)cc2)C[C@H](C)N1", "Obs Value": "21.3 µM"}
{"Compound": "Cn1cc(-c2nc(-c3c[nH]c4ncccc34)cs2)c2cc(F)ccc21", "Obs Value": "10.5 µM"}

Input line: Fetch value of TGI on EKVX NSCLC for "C/C(CC(=O)Nc1ccc(Cl)c(Cl)c1)=N/NC(=O)C[n+]1ccccc1" .
Output line: > 100 µM

Input line: Please indicate recorded TGI of "COc1ccc(-c2[nH]c3ccccc3c2C=C(C#N)C#N)cc1" measured with EKVX NSCLC.
Output line: > 100 µM

Input line: Lab note: record TGI of "COCc1nc2c(OC)cc(-c3nc4nc(N5CCN(C)CC5)ccc4[nH]3)c(OC)c2[nH]1" tested on EKVX NSCLC.
Output line: > 100 µM

Input line: Print EKVX NSCLC TGI for COc1c(Cl)c2c(c(OC)c1OC)-c1ccc(OC)c(=O)c(Cl)c1C(NC(C)=O)CC2 (stereo not given) .
Output line: > 100 µM

Input line: Quote TGI with test system EKVX NSCLC for "Cn1ccnc1C(=O)/C=C/c1ccc(C(=O)Nc2ccc(Cl)cc2)cc1"
Output line: 22 µM

Input line: Report its TGI with EKVX NSCLC as the test system: "O=C(O)CNC(=O)CO/N=C1/C(c2c(O)[nH]c3ccccc23)=Nc2ccccc21"
Output line: > 100 µM

Input line: Name the recorded TGI of C=CCCCC1CCCNC1=O (stereo not given) , assay system EKVX NSCLC.
Output line: > 100 µM
